Biological target: Grb2, histidine-tagged, purified (UniProt P62993 1-217)
Sequence (P62993 whole entry): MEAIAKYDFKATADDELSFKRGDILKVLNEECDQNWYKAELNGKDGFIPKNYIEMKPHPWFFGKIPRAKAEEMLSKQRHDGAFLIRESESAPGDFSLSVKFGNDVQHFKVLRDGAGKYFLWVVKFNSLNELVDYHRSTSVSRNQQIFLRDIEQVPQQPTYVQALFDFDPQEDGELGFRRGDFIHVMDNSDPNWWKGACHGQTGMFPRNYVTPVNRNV
Assay: SPR
Where no end group is shown, it is not given here. [ ]: non-standard residue; d: D form. The star is where a group is joined. Biotin = O=C1N[C@H]2[C@H](CS[C@H]2CCCCC(=O)*)N1; pY = N[C@@H](Cc1ccc(OP(=O)(O)O)cc1)C(=O)O
Record form. Attribute: pKd. Fill in for each entry.
Remember, pKd is on a log scale: it is -log10 of the molar concentration.

The binder listed as Biotin-ASASAKGHE[pY]TNIKYS [pY542 peptide] shows pKd equal to 6.93

The binder listed as Biotin-ASASASARV[pY]ENVGLM [pY580 peptide] shows pKd equal to 7.16
